# system: full-length recombinant mouse PAD4 (mouse) (UniProt Q9Z183)
# Sequence (Q9Z183 whole entry): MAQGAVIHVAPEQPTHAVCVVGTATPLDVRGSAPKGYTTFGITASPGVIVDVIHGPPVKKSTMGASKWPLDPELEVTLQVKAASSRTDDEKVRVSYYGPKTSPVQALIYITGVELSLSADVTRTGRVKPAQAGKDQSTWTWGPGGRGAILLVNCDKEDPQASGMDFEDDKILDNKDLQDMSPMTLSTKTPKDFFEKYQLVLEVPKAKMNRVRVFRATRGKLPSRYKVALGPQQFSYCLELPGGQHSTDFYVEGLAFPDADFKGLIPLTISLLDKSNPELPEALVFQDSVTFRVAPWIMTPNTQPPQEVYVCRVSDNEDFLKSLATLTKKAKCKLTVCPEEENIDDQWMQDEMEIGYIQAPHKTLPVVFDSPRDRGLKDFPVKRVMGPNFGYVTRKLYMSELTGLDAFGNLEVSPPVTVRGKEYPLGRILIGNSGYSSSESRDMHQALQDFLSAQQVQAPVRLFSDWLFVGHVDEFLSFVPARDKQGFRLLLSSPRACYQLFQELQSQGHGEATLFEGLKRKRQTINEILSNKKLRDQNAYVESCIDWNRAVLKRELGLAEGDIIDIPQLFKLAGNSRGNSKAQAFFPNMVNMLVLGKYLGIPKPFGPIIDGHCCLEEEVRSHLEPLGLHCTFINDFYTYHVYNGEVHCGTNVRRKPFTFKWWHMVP
# assayMethodText: ELISA, mouse PAD4 on plate, antibody 0.0039063 ug/mL
Here, each record is paired with measured absorbance 490 nm/630 nm data.
Note: unit OD is implicit; provide only the numeric part.

Enquiry: What does the data say about its absorbance 490 nm/630 nm? Entry: A11 (antibody, IgG1, V domains shown) VH: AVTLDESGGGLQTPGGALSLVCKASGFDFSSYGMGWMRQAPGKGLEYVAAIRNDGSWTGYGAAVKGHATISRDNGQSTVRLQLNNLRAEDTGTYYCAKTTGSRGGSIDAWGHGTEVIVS VL: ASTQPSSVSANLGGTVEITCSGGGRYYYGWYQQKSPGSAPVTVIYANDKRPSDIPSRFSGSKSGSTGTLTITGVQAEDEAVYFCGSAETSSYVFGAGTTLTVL
Return: 1.07

Enquiry: // returns reported absorbance 490 nm/630 nm for input G8 (antibody, IgG1, V domains shown) VH: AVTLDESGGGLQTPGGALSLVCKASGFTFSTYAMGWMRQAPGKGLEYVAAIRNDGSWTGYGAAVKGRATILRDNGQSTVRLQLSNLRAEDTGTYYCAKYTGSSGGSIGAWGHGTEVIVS VL: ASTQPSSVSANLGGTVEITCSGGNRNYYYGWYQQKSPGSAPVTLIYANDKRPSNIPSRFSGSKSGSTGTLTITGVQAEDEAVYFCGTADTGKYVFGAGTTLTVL
Return: 1.42

Now let's try a different one.
Enquiry: Given E9 (antibody, IgG1, V domains shown) VH: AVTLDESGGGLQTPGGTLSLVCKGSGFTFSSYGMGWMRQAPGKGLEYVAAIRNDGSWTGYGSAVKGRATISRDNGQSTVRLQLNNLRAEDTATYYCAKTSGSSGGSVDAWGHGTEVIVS VL: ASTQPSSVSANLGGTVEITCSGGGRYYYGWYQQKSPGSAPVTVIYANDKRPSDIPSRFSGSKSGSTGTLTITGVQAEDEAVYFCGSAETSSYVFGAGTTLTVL , state its recorded absorbance 490 nm/630 nm.
Return: 0.956
